FYI, the data here is from the supplement of paper PMC6757056.

B1: library; a variant is named by its letters at N, in order (parent)
chain: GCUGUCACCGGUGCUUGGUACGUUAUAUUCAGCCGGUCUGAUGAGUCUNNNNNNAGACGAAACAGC

variants of: B1; assay: FACS-Seq fitted mean relative fluorescence mCherry/BFP with ligand (log10 relative fluorescence); HEK293T overexpressing SLC46A1; ligand concentration (+) FACS-Seq: 6 mM; higher = higher reporter protein expression; conditions: with (6R,S)-folinic acid; ligand present: yes
Property: FACS-Seq fitted mean (log10)
One number for each entry.

{"Variant label": "AAAUGG", "FACS-Seq fitted mean (log10)": 0.499}

# batch size: 4; output FACS-Seq fitted mean (log10) per entry
1. GGUGAU
2. AAGAUC
3. UCAUAA
4. CAUAUG

0.491
0.504
0.514
0.496
